System: COLO 205 colon
Experiment: NCI-60 one-dose screen, 48 h (100 = growth as untreated, 0 = no growth, -100 = all killed)
Details: 10 µM unless noted
Protocol: Cells are grown in 96 well plates and exposed to the test compound for 48 hours. Compounds are tested at a single concentration, which is 10^-5 M for most compounds. The reported endpoint is percent growth (GI% or GIPRCNT), where numbers from 0 - 100% represent growth inhibition, and numbers from -100% - 0 represent cell death. For example, a value of 40 represents 60% growth inhibition. A value of 0 means no net growth occurred over the course of the experiment. […]
The panel holds about 83,000 compounds, 20% with a hit somewhere; the sample as a whole holds those more often.
Threshold 20%. growth below it: Fulfilled. growth at it or above: Not fulfilled.

compound	assigned_category
O=C1CC(c2ccc(I)cc2)OC2C=Cc3ccccc3C12 (stereo unspecified)	Not fulfilled
COc1ccc(C2=Nc3c(N)nc(N)nc3NC(c3ccc(Oc4nc(Nc5ccc(F)cc5)nc(N(C)C)n4)c(OC)c3)C2)cc1 (stereo unspecified)	Not fulfilled
COc1cccc2nc(Nc3cccc(NC(=O)c4ccc(CN5CCN(C)CC5)c(C(F)(F)F)c4)c3)ccc12	Fulfilled
Fc1ccc(F)c(CNc2nc(SCCN3CCOCC3)nc3c2cnn3CC(Cl)c2ccc(Br)cc2)c1 (stereo unspecified)	Fulfilled
Cc1nc2sccn2c1-c1nnc(SCC(C)C)o1	Not fulfilled

## Task Quick check: growth of CN(C)c1nc(NCCNS(=O)(=O)c2ccc(C(=O)/C=C/c3ccc(F)cc3)cc2)nc(N2CCOCC2)n1 under 20%?
## Result Not fulfilled

## Task Is the reported growth for O=C(NNC(=O)c1ccc(OCc2nc3ccc(Cl)cc3[nH]2)cc1)Nc1ccc(Cl)c(Cl)c1 strictly below 20%?
## Result Not fulfilled

## Task is_below(growth, 20%) for COc1ccc([C@H]2C(C(=O)c3ccc(Cl)cc3)C3(N[C@@H]2c2ccccc2)C(=O)Nc2ccccc23)cc1 (stereo partly specified) ?
## Result Fulfilled

## Task Hello, is growth of the following compound strictly smaller than 20%? O=c1c(-c2nc(-c3ccccc3)c(-c3ccccc3)[nH]2)coc2ccc(F)cc12
## Result Not fulfilled
